- System: RPMI-8226
- test.name: NCI tumour cell line growth inhibition, 48 h
The source made the active and inactive calls. Cut-off read from the data, not from the text of the source: active = GI50 up to about 1.1 µM and inactive = higher.
Please answer using one outcome listed in 1 (yes) = active, 0 (no) = inactive

A selection of reference data follows.
[
  {
    "compound": "Cc1cc(C)n(C(=O)C(C)Sc2nnc(SC(C)C(=O)n3nc(C)cc3C)s2)n1 (centres undefined)",
    "label": "0 (no)"
  },
  {
    "compound": "O=C1c2ccccc2C2CNC1(O)c1ccccc12 (centres undefined)",
    "label": "0 (no)"
  },
  {
    "compound": "COc1cc(C)cc(C(=O)OCc2ccccc2)c1C1=C(Cl)C(=O)C(Cl)=CC1=O",
    "label": "0 (no)"
  },
  {
    "compound": "CCOC(=O)c1cc2c3ccn(Cc4ccccc4)c3c3c(C)noc3c2[nH]1",
    "label": "0 (no)"
  },
  {
    "compound": "CCCNC(=O)C1C(=O)C(=O)N(CCC)C1=O (centres undefined)",
    "label": "0 (no)"
  },
  {
    "compound": "C=C1CC(C)(COc2ccc3ccc(=O)oc3c2)OC1=O (centres undefined)",
    "label": "1 (yes)"
  },
  {
    "compound": "COc1cc(/C=C2/C(=O)N(C(=O)c3ccc(Cl)cc3)N=C2C)cc(OC)c1OC",
    "label": "0 (no)"
  },
  {
    "compound": "COc1cc2c(cc1OCCCC(=O)Nc1cc(C(=O)Nc3cc(C(=O)Nc4cc(C(=O)NCCCN(C)C)n(C)n4)n(C)c3)n(C)c1)N=CC1CCCN1C2=O (centres undefined)",
    "label": "0 (no)"
  },
  {
    "compound": "O=[N+]([O-])c1cc(F)ccc1S(=O)(=O)c1ccccc1",
    "label": "0 (no)"
  },
  {
    "compound": "CCCCCCCCCCCCCCCCCC(=O)OCC(COC1OC(CS(=O)(=O)O)C(O)C(O)C1O)OC(=O)CCCCCCCCCCCCCCCCC (centres undefined)",
    "label": "0 (no)"
  }
]

// return assay outcome for `NC1=Nc2cc(C(F)(F)F)ccc2Sc2nc3ccccc3n21`
0 (no)

// return assay outcome for `C/C(=N\NC(=S)N(C)CCN(C)C(=S)N/N=C(\C)c1ccccn1)c1ccccn1`
0 (no)

###

- Tested on: SW-620
- test.name: NCI tumour cell line growth inhibition, 48 h
Active and inactive are the calls of the source. Cut-off read from the data, not from the text of the source: active = GI50 up to about 1.1 µM and inactive = higher. Starred links: 1 amine or outer side, 2 acyl side, 3 side chain; linkers in the order of their positions; H or OH if unused. Positions of bridges follow the written chain, without caps; N, C: chain ends. Non-standard residues stand in square brackets, D forms with d. Residues, ends and D or L forms follow the SMILES beside them. Chains are numbered I, II in the order given. Actinocin(9to1) = Cc1c2oc3c(C)ccc(C(=O)[*:1])c3nc-2c(C(=O)[*:2])c(N)c1=O; NMeV = CN[CH](C(=O)O)C(C)C; Sar = CNCC(=O)O
// reported GI50 for each item listed

Guide cases for GI50, answers given:
[
  {
    "compound": "COc1cc(/C=C2/C(=O)N(C(=O)c3ccc(Cl)cc3)N=C2C)cc(OC)c1OC",
    "GI50": "> 100 µM (inactive)"
  },
  {
    "compound": "CC1=NC(=N)N=C(C)C1/N=N/c1ccc2[nH]c(C)nc2c1 (stereo unspecified)",
    "GI50": "> 100 µM (inactive)"
  },
  {
    "compound": "OC12c3ccccc3C1CCCCCCCCCC21OCCO1 (stereo unspecified)",
    "GI50": "> 100 µM (inactive)"
  },
  {
    "compound": "Cc1cc2nc(C=C(C(F)(F)F)C(F)(F)F)sc2cc1C",
    "GI50": "0.957 µM (active)"
  },
  {
    "compound": "CCOC(=O)Cn1nnc2cc(Nc3c(C)[n+]([O-])c4cc(F)c(OCC)cc4[n+]3[O-])ccc21",
    "GI50": "> 100 µM (inactive)"
  }
]

Fill in: GI50 of CCOC(=O)[C@]12C3C=CC(C3)C1C(=O)C1OC12 (stereo partly specified) is ___
> 100 µM (inactive)

Fill in: GI50 of `CN1/C(=C\N=O)C(C)(C)N(O)C1(C)C` is ___
> 100 µM (inactive)

Fill in: GI50 of C=C1C(=O)O[C@H]2C/C(C=O)=C\[C@H]3O[C@H]3/C(COC(=O)C(C)C)=C/CC12 (stereo partly specified) is ___
2.52 µM (inactive)

Fill in: GI50 of `O=[N+]([O-])c1cnc(N(CCO)CCO)s1` is ___
> 100 µM (inactive)

Fill in: GI50 of `O=C(Cc1ccccc1)NS(=O)(=O)c1ccccc1` is ___
> 100 µM (inactive)

Fill in: GI50 of `O=CNCCCN1CCN(CCCNC=O)CC1` is ___
> 100 µM (inactive)

Fill in: GI50 of `Cn1c(=O)n(C2(C)C[Se]C2)c2ccccc21` is ___
> 100 µM (inactive)

Fill in: GI50 of `NCCN1CCCCCc2ccccc21` is ___
> 10 µM (inactive)

Fill in: GI50 of `Cc1nc2ccccc2c(=O)n1/N=C/c1ccc(N(C)C)cc1` is ___
> 100 µM (inactive)

Fill in: GI50 of CCC(C(=O)c1ccc(OC)c(OC)c1)N(C(=O)C(F)(F)F)C(C)c1ccccc1 (stereo unspecified) is ___
> 100 µM (inactive)

Fill in: GI50 of CC(=O)OCC1OC(n2c(-c3ccc(Cl)cc3)ccc(C#N)c2=S)C(OC(C)=O)C(OC(C)=O)C1OC(C)=O (stereo unspecified) is ___
> 100 µM (inactive)

Fill in: GI50 of C=C1C[C@H](O)[C@H]2C(C[Se]c3ccccc3)C(=O)O[C@@H]2[C@H]2[C@H](C)C(O)C[C@@H]12 (stereo partly specified) is ___
27.5 µM (inactive)

Fill in: GI50 of CCOC(=O)C1=C(C)N(Cc2ccccc2)C(=O)C1CC#N (stereo unspecified) is ___
34 µM (inactive)

Fill in: GI50 of `Cc1c(C(=O)/C=C/c2ccc3c(c2)OCO3)[n+]([O-])c2ccccc2[n+]1[O-]` is ___
37.2 µM (inactive)

Fill in: GI50 of `COc1cc(/C=C(\C)c2ccc3c(c2)OCO3)cc(OC)c1OC` is ___
19.1 µM (inactive)

Fill in: GI50 of CCCNC(=O)C1C(=O)C(=O)N(CCC)C1=O (stereo unspecified) is ___
> 100 µM (inactive)

Fill in: GI50 of `COc1cc2ccccc2c2cc([N+](=O)[O-])oc12` is ___
0.893 µM (active)

Fill in: GI50 of `Clc1c(C(Cl)(Cl)Cl)nsc1N1CCCCC1` is ___
32.4 µM (inactive)

Fill in: GI50 of Cc1cc(C)n(C(=O)C(C)Sc2nnc(SC(C)C(=O)n3nc(C)cc3C)s2)n1 (stereo unspecified) is ___
> 100 µM (inactive)

Fill in: GI50 of `COc1ccc(CCc2ccccc2CC(=O)O)cc1` is ___
> 100 µM (inactive)

Fill in: GI50 of CC(=O)OCC1OC(NC(=O)N(CCCl)N=O)C(OC(C)=O)C(OC(C)=O)C1OC(C)=O (stereo unspecified) is ___
> 100 µM (inactive)

Fill in: GI50 of CCC1(c2ccc(OC)c(OC)c2)CCN2C(=O)C(O)CC21 (stereo unspecified) is ___
> 100 µM (inactive)

Fill in: GI50 of Cc1c2oc3c(C)ccc(C(=O)NC4C(=O)NC(Cc5ccc(O)cc5)C(=O)N5CCCC5C(=O)N(C)CC(=O)N(C)C(C(C)C)C(=O)OC4C)c3nc-2c(C(=O)NC2C(=O)NC(Cc3ccc(O)cc3)C(=O)N3CCCC3C(=O)N(C)CC(=O)N(C)C(C(C)C)C(=O)OC2C)c(N)c1=O (stereo unspecified) (I: TYP[Sar][NMeV] / II: TYP[Sar][NMeV]; ester I:1-I:C, II:1-II:C; linker I:N-II:N via Actinocin(9to1); configuration not given here) is ___
0.33 µM (active)

Fill in: GI50 of `O=S(=O)(Cc1nc2ccccc2s1)c1nc2ccccc2s1` is ___
17.2 µM (inactive)

Fill in: GI50 of `COc1ccc(/C=N/N=C(\N)NO)c(OC)c1OC` is ___
46.2 µM (inactive)

Fill in: GI50 of COC1=C(C(=O)OC(C)(C)C)[C@]2(C)C(C(=O)OC(C)(C)C)C(OC)=C(C(=O)OC(C)(C)C)[C@]2(C)C1C(=O)OC(C)(C)C (stereo partly specified) is ___
> 100 µM (inactive)
